# Kd annotations
molecular target: PKR dsRBMs (Homo sapiens, UniProt P19525 9-167); experiment: FP; settings: protein: recombinant; tags: tag cleaved by TEV; label: 3' FAM; hairpin
Sequence (P19525 9-167): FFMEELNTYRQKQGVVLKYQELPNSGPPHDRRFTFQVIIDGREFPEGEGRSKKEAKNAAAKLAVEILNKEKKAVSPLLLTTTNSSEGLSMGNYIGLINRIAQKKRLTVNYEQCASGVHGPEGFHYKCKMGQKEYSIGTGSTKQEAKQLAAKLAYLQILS
Response body: numeric value in nM, unit text excluded.

Query: Need Kd of CCAGAUCUGAGCCUGGGAGCUCUCUGG (structured_RNA) [TARΔ14bp] , thanks.
Result: 2280
